Every entry's value here was drawn from ChEMBL document CHEMBL1649075.

system: 17β-HSD1 (Homo sapiens); assay: Displacement of [3H]estrone human recombinant 17beta-HSD1 expressed in Escherichia coli BL21 (DE3)-RIL at 6 uM by scintillation counting in presence of NADPH
The source made the active and inactive calls. The rule behind the calls is not given here.
property: inhibition

- input-smiles: "CCOC(=O)c1cc2ccc(-c3ccccc3)cc2oc1=O"
  property: "inhibition"
  result: "7%"
- input-smiles: "COc1ccc2cc(C(C)=O)c(=O)oc2c1"
  property: "inhibition"
  result: "25%"
- input-smiles: "CC(=O)c1cc2cc(-c3ccc(C)cc3)ccc2oc1=O"
  property: "inhibition"
  result: "inactive"
- input-smiles: "CCOC(=O)c1cc2cc(-c3ccccc3)ccc2oc1=O"
  property: "inhibition"
  result: "21%"
- input-smiles: "CCOC(=O)c1cc2cc(-c3ccc(C)cc3)ccc2oc1=O"
  property: "inhibition"
  result: "16%"
- input-smiles: "CCOC(=O)c1cc2cc(Br)ccc2oc1=O"
  property: "inhibition"
  result: "inactive"
- input-smiles: "CCOC(=O)c1cc2ccc(-c3ccc(C)cc3)cc2oc1=O"
  property: "inhibition"
  result: "9%"
- input-smiles: "CCOC(=O)c1cc2ccc(OS(=O)(=O)C(F)(F)F)cc2oc1=O"
  property: "inhibition"
  result: "inactive"
- input-smiles: "COc1ccc(-c2ccc3ccc(=O)oc3c2)cc1"
  property: "inhibition"
  result: "10%"
- input-smiles: "CC(=O)c1cc2cc(-c3ccc(Cl)cc3)ccc2oc1=O"
  property: "inhibition"
  result: "inactive"
- input-smiles: "O=c1ccc2ccc(-c3ccc(O)cc3)cc2o1"
  property: "inhibition"
  result: "43%"
- input-smiles: "O=c1ccc2ccc(OS(=O)(=O)C(F)(F)F)cc2o1"
  property: "inhibition"
  result: "9%"
- input-smiles: "O=c1ccc2cc(-c3ccc(O)cc3)ccc2o1"
  property: "inhibition"
  result: "30%"
- input-smiles: "CC(=O)c1cc2ccc(OS(=O)(=O)C(F)(F)F)cc2oc1=O"
  property: "inhibition"
  result: "100%"
- input-smiles: "Cc1ccc(-c2ccc3ccc(=O)oc3c2)cc1"
  property: "inhibition"
  result: "29%"
- input-smiles: "CCOC(=O)c1cc2ccc(-c3ccc(OC)cc3)cc2oc1=O"
  property: "inhibition"
  result: "1%"
- input-smiles: "CC(=O)c1cc2ccc(-c3ccc(C)cc3)cc2oc1=O"
  property: "inhibition"
  result: "72%"
- input-smiles: "Cc1ccc(-c2ccc3oc(=O)ccc3c2)cc1"
  property: "inhibition"
  result: "inactive"
- input-smiles: "COc1ccc(-c2ccc3oc(=O)ccc3c2)cc1"
  property: "inhibition"
  result: "26%"
- input-smiles: "COc1ccc(-c2ccc3oc(=O)c(C(C)=O)cc3c2)cc1"
  property: "inhibition"
  result: "inactive"
- input-smiles: "CC(=O)c1cc2ccc(-c3ccc(F)cc3)cc2oc1=O"
  property: "inhibition"
  result: "13%"
- input-smiles: "CCOC(=O)c1cc2cc(-c3ccc(Cl)cc3)ccc2oc1=O"
  property: "inhibition"
  result: "14%"
- input-smiles: "O=c1ccc2cc(-c3ccc(Cl)cc3)ccc2o1"
  property: "inhibition"
  result: "10%"

---

test system: 17β-HSD1 (Homo sapiens); assay: Displacement of [3H]estrone human recombinant 17beta-HSD1 expressed in Escherichia coli BL21 (DE3)-RIL at 6 uM by scintillation counting in presence of NADPH
The source made the active and inactive calls. The calls are words filed in the database; no cut-off is given here.

- input-smiles: "CCOC(=O)c1cc2ccc(-c3ccc(Cl)cc3)cc2oc1=O"
  tested-on: "17β-HSD1 (Homo sapiens)"
  inhibition: "inactive"
- input-smiles: "O=c1ccc2ccc(-c3ccccc3)cc2o1"
  tested-on: "17β-HSD1 (Homo sapiens)"
  inhibition: "10%"
- input-smiles: "O=c1ccc2ccc(-c3ccc(Cl)cc3)cc2o1"
  tested-on: "17β-HSD1 (Homo sapiens)"
  inhibition: "9%"
- input-smiles: "COc1ccc(-c2ccc3cc(C(C)=O)c(=O)oc3c2)cc1"
  tested-on: "17β-HSD1 (Homo sapiens)"
  inhibition: "86%"
- input-smiles: "CCOC(=O)c1cc2cc(-c3ccc(F)cc3)ccc2oc1=O"
  tested-on: "17β-HSD1 (Homo sapiens)"
  inhibition: "21%"
- input-smiles: "O=c1ccc2cc(-c3ccccc3)ccc2o1"
  tested-on: "17β-HSD1 (Homo sapiens)"
  inhibition: "18%"
- input-smiles: "CCOC(=O)c1cc2cc(-c3ccc(OC)cc3)ccc2oc1=O"
  tested-on: "17β-HSD1 (Homo sapiens)"
  inhibition: "7%"
- input-smiles: "CC(=O)c1cc2cc(-c3ccccc3)ccc2oc1=O"
  tested-on: "17β-HSD1 (Homo sapiens)"
  inhibition: "inactive"
- input-smiles: "O=c1ccc2cc(Br)ccc2o1"
  tested-on: "17β-HSD1 (Homo sapiens)"
  inhibition: "inactive"
- input-smiles: "CC(=O)c1cc2ccc(-c3ccc(O)cc3)cc2oc1=O"
  tested-on: "17β-HSD1 (Homo sapiens)"
  inhibition: "100%"
- input-smiles: "CC(=O)c1cc2ccc(-c3ccc(Cl)cc3)cc2oc1=O"
  tested-on: "17β-HSD1 (Homo sapiens)"
  inhibition: "17%"
- input-smiles: "CC(=O)c1cc2cc(-c3ccc(F)cc3)ccc2oc1=O"
  tested-on: "17β-HSD1 (Homo sapiens)"
  inhibition: "59%"
